test: qHTS assay to identify small molecule antagonists of the estrogen related receptor (ERR) signaling pathway from Tox21 library - cell viability counter screen (AID 1224834); conditions: ERR reporter cells viability, CellTiter-Fluor, 17.5 h; series mostly up to 92.4 µM; further: on the % scale 0 is the no-effect control and ±100 the full control effect; nearly all actives have a fitted effect of over 30% in size
Results filed as inconclusive are left out. Activity calls are given as the source filed them. The call rests on the fitted dose curve; in most records, active means well fitted cell-killing curve with a large enough effect in the repeat runs; inconclusive means weak or mixed curves; inactive means flat fitted curve, though single readings scatter.
parameter: viability change, negative = cytotoxic

1. CCCCC(=O)O[C@]1(C(=O)CO)[C@H](C)C[C@H]2[C@@H]3CCC4=CC(=O)C=C[C@]4(C)[C@@]3(F)[C@@H](O)C[C@@]21C: inactive
2. FC(F)(F)c1ccccc1: inactive
3. O=c1oc2c(O)c(O)cc3c(=O)oc4c(O)c(O)cc1c4c23: -2.26% [at 19 µM] (inactive)
4. CCCN(CCC)C(=O)C(CCC(=O)O)NC(=O)c1ccccc1 (stereo not given): inactive
5. CN1[C@@H]2CC[C@H]1CC(OC(=O)c1c[nH]c3ccccc13)C2 (stereo not given in full): inactive

---

experiment: qHTS assay to identify small molecule agonists of H2AX - cell viability counter screen (AID 1224847); settings: CHO-K1 viability, CellTiter-Glo luminescence, 3 h; series mostly up to 154 µM;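 further: wild-type CHO-K1 cells; top concentration of the series differs between compounds; on the % scale 0 is the no-effect control and ±100 the full control effect; nearly all actives have a fitted effect of over 30% in size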
Results filed as inconclusive are left out. Activity calls are given as the source filed them. Calls come from the whole dose curve.
parameter: activity change, negative = cytotoxicity

1) O=C(O)C(=O)Cc1c[nH]c2ccccc12: inactive
2) C[C@@H](N)C(=O)O: inactive
3) CCCCCOc1ccc(C2SC(=O)NC2=O)cc1OCC (configuration not stated): inactive
4) CC(C)C(=O)OC/C=C/c1ccccc1: inactive
5) COc1ccc(S(=O)(=O)Nc2nnc(CC(C)C)s2)cc1: inactive
6) NS(=O)(=O)c1cc(-c2nn[nH]n2)c(NCc2cccs2)cc1Cl: inactive
7) C=CC1CO1 (configuration not stated): inactive
8) CCN1CC(CCN2CCOCC2)C(c2ccccc2)(c2ccccc2)C1=O (configuration not stated): inactive
9) Cc1cccc(C)c1NC(=O)CN1CCCCCC1: inactive
10) OCC(CBr)(CBr)CBr: inactive
11) ICCc1ccccc1: inactive
12) CCCC1CCC(=O)O1 (configuration not stated): inactive
13) CCNCCO: inactive
14) Cc1c(C(=O)NCCO)[n+](=O)c2ccccc2n1[O-]: inactive
15) COC(C)CCO (configuration not stated): inactive
16) Nc1cccc(S(=O)(=O)O)c1: inactive
17) O=C(O)CN(CCN(CC(=O)O)CC(=O)O)CCN(CC(=O)O)CC(=O)O: 0.16% [at 31.6 µM] (inactive)
18) C1CSCCS1: inactive
19) CC(C)O: inactive
20) CCCNC(C)C(=O)Nc1c(C)csc1C(=O)OC (configuration not stated): inactive
21) NC/C=C/C(=O)O: inactive
22) Cc1ccc(C(C)C)cc1O: inactive
23) CN1CCN(N)CC1: inactive
24) CCOC(=O)[C@H](CCc1ccccc1)N[C@@H](C)C(=O)N1Cc2cc(OC)c(OC)cc2C[C@H]1C(=O)O: inactive
25) O=C(O)c1cccc(Cl)c1Cl: inactive
26) CC(C)C[C@H](NC(=O)OCC1c2ccccc2-c2ccccc21)C(=O)O: inactive
27) c1ccc(CN(CC2=NCCN2)c2ccccc2)cc1: inactive
28) CC(C)S: inactive
29) CC1CN(c2ccccc2)NC1=O (configuration not stated): inactive
30) CCCCC1CCC(=O)O1 (configuration not stated): inactive
31) CCN(CC)C(=O)N(CC)CC: inactive
32) Cc1ccc(C=O)s1: inactive

---

assay: qHTS assay to identify small molecule antagonists of the sonic hedgehog signaling (Shh) pathway - cell viability counter screen (AID 1259367); details: NIH/3T3 Gli1-Luc viability, CellTiter-Fluor, 24 h; series mostly up to 92.4 µM; further: nearly all actives have a fitted effect of over 55% in size
Records with an inconclusive call do not appear. The source made the active and inactive calls. Calls follow the shape of the dose curve; as a rule, active = well fitted cell-killing curve with a large enough effect in the repeat runs; inconclusive = weak or mixed curves, or effect the other way; inactive = no such curve, though single readings can be large or run the other way.
Possible outcomes: active, inactive

1. CCN(CC)C(=O)N(CC)CC: inactive
2. CC(C)C(=O)OC/C=C/c1ccccc1: inactive
3. COc1ccc2nc(NC(=O)Nc3ccccc3)sc2c1: inactive
4. Cc1ccc([N+](=O)[O-])cc1Cl: inactive
5. CCCOc1ccc2c(c1)CC[C@@H]1[C@@H]2CC[C@]2(C)C(OC)CC[C@@H]12 (some centres not stated): inactive
6. O=C1N(c2ccccc2)c2ccccc2C1(Cc1ccncc1)Cc1ccncc1: inactive
7. CCc1nnc(NS(=O)(=O)c2ccc(N)cc2)s1: inactive
8. CCC/C=C/CO: inactive
9. CN1CCN(c2c(F)cc3c(=O)c(C(=O)O)cn(CCF)c3c2F)CC1: inactive
10. ClC(Cl)Cl: active
11. COC(=O)/C=C(/C)N: inactive
12. CCN(CC)CCNC(=O)COc1ccc(Cl)cc1: inactive
13. C/C(=N\O)[C@@H](C)NCC(C)(C)CN[C@H](C)/C(C)=N/O: inactive
14. CCCCCCOc1ccc(N)cc1: inactive
15. CO[Si](C)(C)OC: inactive
16. O=C1C=CC(=O)O1: inactive
17. CCOC(=O)C(Br)c1ccccc1 (configuration not stated): inactive
18. OCCN1CCN(CCO)CC1: inactive
19. C[C@]12CCC(=O)C=C1CC[C@@H]1[C@@H]2CC[C@@]2(C)[C@H]1CC[C@]2(O)C(=O)CO: inactive
20. O=C(CCCl)NCc1ccccc1: inactive
21. CCCCCCn1c(=O)c2c(ncn2C)n(C)c1=O: inactive
22. CN(C)CC[C@@H](c1ccc(Cl)cc1)c1ccccn1: inactive
23. CCCCN1C[C@H](O)[C@@H](O)[C@H](O)[C@H]1CO: inactive
24. Cc1c(C(=O)NCCO)[n+](=O)c2ccccc2n1[O-]: inactive
25. Cc1nnc(SCC2=C(C(=O)O)N3C(=O)[C@@H](NC(=O)Cn4cnnn4)[C@H]3SC2)s1: inactive
26. CCc1cc(Cl)c(OC)c(C(=O)NC[C@@H]2CCCN2CC)c1O: inactive
27. COc1cc2c(cc1N)oc1ccccc12: active

---

biological target: Thyrotropin-releasing hormone receptor (Homo sapiens); test: qHTS assay to identify small molecule antagonists of the thyrotropin-releasing hormone receptor (TRHR) signaling pathway (AID 1346877); conditions: TRHR-HEK293, TRH-induced calcium fluorescence, antagonist mode; series mostly up to 51.3 µM; further: on the % scale 0 is the no-effect control and ±100 the full control effect
Activity calls are given as the source filed them. Calls follow the shape of the dose curve; as a rule, active = well fitted inhibition curve with a large enough effect in the repeat runs (not every such curve was filed as active); inconclusive = weak or mixed curves; inactive = flat fitted curve, though single readings scatter.
parameter: activity, negative = inhibition

1. CCN1CC(CCN2CCOCC2)C(c2ccccc2)(c2ccccc2)C1=O (configuration not stated): inactive
2. OCCN(CCO)CCN(CCO)CCO: inactive
3. O=C(O)CN(CCN(CC(=O)O)CC(=O)O)CCN(CC(=O)O)CC(=O)O: 0.832% [at 10.5 µM] (inactive)
4. C[C@@H]1CN(c2c(F)c(N)c3c(=O)c(C(=O)O)cn(C4CC4)c3c2F)C[C@H](C)N1: 0.314% [at 10.5 µM] (inactive)
5. COc1ccc(S(=O)(=O)Nc2nnc(CC(C)C)s2)cc1: inactive
6. CC(C)(CO)[C@@H](O)C(=O)NCCC(=O)O: inactive
7. CCCCCCCCOC(=O)CCCCCCCCC(=O)OCCCCCCCC: inactive
8. CCOC(=O)C1CC(=O)C(=C(O)C2CC2)C(=O)C1 (configuration not stated): inactive
9. Cc1c(-c2ccccc2)oc2c(C(=O)OCCN3CCCCC3)cccc2c1=O: inactive
10. OCc1ccccc1O: inactive
11. O=C1CCC(C2CCCCC2)CC1: inactive
12. CC(=O)OC(C)OC(C)=O: inactive

---

test: A CellTox Green Cytotoxicity Assay to monitor cytotoxicity in HEK293 cells - 24 hour (AID 1224875); conditions: CellTox Green fluorescence; series mostly up to 76.8 µM; further: nearly all actives have a fitted effect of over 45% in size
Records with an inconclusive call do not appear. Calls of active or inactive are those of the source. Calls follow the shape of the dose curve; as a rule, active = well fitted activation curve with a large enough effect in the repeat runs; inconclusive = weak or mixed curves; inactive = flat fitted curve, though single readings scatter.
Possible outcomes: label 1 (active), label 0 (inactive)

1) O=C(C(Cl)Cl)N1CCOC12CCCCC2: label 0
2) Cc1onc(-c2ccccc2)c1C(=O)Cl: label 0
3) CN1CCN(C2=Nc3cc(F)ccc3Cc3ccccc32)CC1: label 0
4) CC(C)S: label 0
5) C/C(=N\O)[C@@H](C)NCC(C)(C)CN[C@H](C)/C(C)=N/O: label 0
6) O=[N+]([O-])c1nccn1CO[C@@H](CO)[C@H](O)CO: label 0
7) CN1C(=O)CC(c2ccccc2)C1=O (stereo not drawn): label 0
8) COc1ccccc1N1CCN(CCCNc2cc(=O)n(C)c(=O)n2C)CC1: label 0
9) CO[C@@]1(NC(=O)CSCC#N)C(=O)N2C(C(=O)O)=C(CSc3nnnn3C)CS[C@@H]21: label 0
10) O=C(O[C@@H](C(=O)O)[C@@H](OC(=O)c1ccccc1)C(=O)O)c1ccccc1: label 0
11) C=CCc1cc(OC)c(O)c(C(=O)NCCO)c1: label 0
12) CC(C)C[C@H](NC(=O)OCC1c2ccccc2-c2ccccc21)C(=O)O: label 0
13) CCCCNC(=S)NCCCC: label 0
14) NC1=NCC2c3ccccc3Cc3ccccc3N12 (stereo not drawn): label 0
15) CC(=O)OC(C)OC(C)=O: label 0
16) CCCCNc1ccc(C(=O)OCCN(CC)CC)cc1: label 0
17) Cc1ccc([N+](=O)[O-])cc1Cl: label 0
18) Cc1ccc(C)c(N)c1: label 0
19) Cc1cc(NS(=O)(=O)c2ccc(N)cc2)nc(C)n1: label 0
20) NC/C=C/C(=O)O: label 0
21) C=CC1CO1 (stereo not drawn): label 0
22) Cc1ccsc1C(=CCCN1CCC[C@@H](C(=O)O)C1)c1sccc1C: label 0
23) CCC1(C)NC(=O)NC1=O (stereo not drawn): label 0
24) CCCCC1CCC(=O)O1 (stereo not drawn): label 0
25) CN1CCN(c2c(F)cc3c(=O)c(C(=O)O)cn(CCF)c3c2F)CC1: label 1
26) CCC/C=C/CO: label 0
27) Clc1cccc(-c2cc(Cl)cc(Cl)c2)c1: label 1
28) Nc1ccc2ccccc2c1S(=O)(=O)O: label 0
